TARGET UNDER TEST: T1, human IL-12Rβ2 (human, UniProt Q99665 24-862)
T1 construct: Expressed on HEK293T cells transiently transfected with a pcDNA3 plasmid (Genscript clone OHu21785); also called hIL-12RB2; IL-12 receptor β2 subunit
T1 sequence: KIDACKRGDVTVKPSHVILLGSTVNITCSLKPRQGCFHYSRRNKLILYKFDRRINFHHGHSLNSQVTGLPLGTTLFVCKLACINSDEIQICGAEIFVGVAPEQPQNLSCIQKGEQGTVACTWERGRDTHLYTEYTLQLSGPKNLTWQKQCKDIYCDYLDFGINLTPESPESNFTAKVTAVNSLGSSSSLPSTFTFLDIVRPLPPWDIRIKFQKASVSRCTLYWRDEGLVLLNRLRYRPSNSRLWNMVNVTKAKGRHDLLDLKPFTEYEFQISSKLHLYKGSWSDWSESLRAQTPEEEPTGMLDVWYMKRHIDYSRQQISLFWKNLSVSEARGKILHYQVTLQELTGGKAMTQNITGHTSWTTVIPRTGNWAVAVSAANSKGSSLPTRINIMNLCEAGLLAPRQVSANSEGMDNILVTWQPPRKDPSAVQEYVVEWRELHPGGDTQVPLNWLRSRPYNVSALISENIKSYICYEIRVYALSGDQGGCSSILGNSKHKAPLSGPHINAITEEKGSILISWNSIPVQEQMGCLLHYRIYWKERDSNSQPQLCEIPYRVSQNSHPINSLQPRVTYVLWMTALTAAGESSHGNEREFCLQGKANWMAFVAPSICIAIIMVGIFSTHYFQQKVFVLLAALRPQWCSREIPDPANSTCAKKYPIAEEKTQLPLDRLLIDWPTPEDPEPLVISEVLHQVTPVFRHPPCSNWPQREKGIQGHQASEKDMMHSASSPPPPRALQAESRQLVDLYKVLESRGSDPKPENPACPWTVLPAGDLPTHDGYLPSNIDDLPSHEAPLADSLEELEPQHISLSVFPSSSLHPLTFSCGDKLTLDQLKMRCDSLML
PROTOCOL NOTES: flow cytometry, P.E. on transfected HEK293T cells
TEST READOUT: % cells bound (%)
One number for each entry, in %.

**Query** Given the entry anti-IL-12Rβ2 VHH clone 3CRH28 (VHH, not shown: small tags and cut ends, periplasmic extract) VHH: QVQLQESGGGLVQPGGSLTLSCAASGFTFSSNAMSWVRQAPGKGLEWVSSISSGGGTTYYTDSVKGRFTTARDNAKNTLYLRMNSLKPEDTAVYYCSKSSTGSGSRGQGTQVTVSS , report its measured % cells bound.
**Result** 44.6

**Query** Entry to check: anti-IL-12Rβ2 VHH clone 3CAHS170 (VHH, not shown: small tags and cut ends, periplasmic extract) VHH: QVQLQESGGGLVQAGGSLRLSCVASGRTFSSYAMGWFRQGPGKEREFVAAISWSGVSIYYADSVKGRFTISRDNAKNTVYLQMNSLEPEDTAVYYCAGTEGAYTVAGGSTFGYDMDYWGKGTQVTVSS
**Result** 38.3

**Query** Entry to check: anti-IL-12Rβ2 VHH clone 2CRH80 (VHH, not shown: small tags and cut ends, periplasmic extract) VHH: QVQLQESGGGLVQPGGSLRLSCAASGFTFSTSGMHWFRQAPGKGLEWVSSIGIIVGSSYYASSVKGRFTISRDNAKNTLYLHMNSLKSEDTAVYYCSKDVTGSSRGQGTQVTVSS
**Result** 40.1

Please turn your attention to the following entry.
**Query** Given the entry anti-IL-12Rβ2 VHH clone 3CRH68 (VHH, not shown: small tags and cut ends, periplasmic extract) VHH: QVQLQESGGGLVQPGGSLRLSCTASGSILSIYNMDWYRQVPGNQREWVASITPSGDPYYDGSVKGRFTISRDNAKMMVYLQMNSLKPEDTAVYYCKVPTEKGNYWGQGTQVTVSS , report its measured % cells bound.
**Result** 38.2

Origin of measurements: patent US20260209362A1
